test system: EKVX NSCLC; experiment: NCI tumour cell line growth inhibition, 48 h
The entries below come with measured TGI values attached.

1) c1ccc2c(c1)OCCc1cn[nH]c1-2
> 100 µM

-- ask What TGI value was documented for this molecule, `c1ccc2c(c1)nc1n2CSCC1` ?
-- reply > 100 µM

-- ask Note, next up: `CC[C@H](C)C1=C(OC(C)=O)[N@+]2([O-])Oc3ccc(-c4c(O)c(O)c(-c5ccc(OC(C)=O)cc5)c(OC(C)=O)c4OC(C)=O)cc3O[C@]2([C@@H](C)CC)C(=O)N1O`
-- reply > 50 µM

-- ask Can you handle COc1ccc2c(c1)CC1COc3cc(OC)ccc3C1O2 (configuration not stated) next?
-- reply > 100 µM

----------
tested on: T-47D breast; test: NCI tumour cell line growth inhibition, 48 h
result type: TGI

1) O=C1c2c(O)cc(O)cc2C(C2OC(CO)C(O)C(O)C2O)c2cc(CO)cc(O)c21 (stereo not given)
> 100 µM
2) CCOC(=O)c1nc2ccccc2nc1NCc1ccc(OC)c(OC)c1
> 100 µM
3) Nc1c(OCC(=O)O)ccc2cc(S(=O)(=O)O)ccc12
> 100 µM
4) COc1ccc(/C=C2\C[C@H]3[C@@H]4CC=C5C[C@@H](OC(C)=O)CC[C@]5(C)[C@H]4CC[C@]3(C)\C2=N\O)cc1OC
> 100 µM
5) COC(=O)C1CCC(=O)N1CN(C(C)=O)c1cc(OC)ccc1OC (stereo not given)
> 100 µM

-- ask Look up TGI for this molecule: `Cc1cc(C(=O)/C=C/c2ccc[nH]2)ccc1-n1ccc(C(F)(F)F)n1`
-- reply > 100 µM

-- ask Please give the result for O=C(O)C1CC=CCC1C(=O)Nc1cccc(O)c1 (stereo not given) too.
-- reply > 100 µM

-- ask Would you mind doing O=C1C2=Cc3ccccc3OC2(O)Oc2ccccc21 (stereo not given) as well?
-- reply > 100 µM

-- ask Can you check `O=C(O)Cc1ccc(Nc2nc3ccccc3nc2C(=O)O)cc1` next?
-- reply > 100 µM

-- ask Now the molecule O=C(O)C1OC1C(=O)O (stereo not given)
-- reply > 100 µM

-- ask Also check `COC(=O)CCC1=NCC(C)(C)O1`
-- reply > 10 µM

-- ask Try this molecule too: `C=C1[C@H]2O[C@H]2[C@@H](OC(C)=O)[C@@]2(C)[C@@H](OC(C)=O)C[C@@H](OC(=O)CCC)[C@@](C)(O)[C@@H]2[C@@H](OC(C)=O)[C@]2(O)[C@@H](C)C(=O)O[C@H]2[C@H]1Cl`
-- reply > 100 µM

----------
system: MALME-3M melanoma; assay: NCI tumour cell line growth inhibition, 48 h
result type: TGI

Below, 2 molecules whose answers are already recorded.
1) O=C1CCC(=O)N1CNc1ccc2c(c1)S(=O)(=O)c1ccccc1O2
> 100 µM
2) CN(C)CCCNc1ccc2nnn3c4ccc(OC(=O)c5ccccc5)cc4c(=O)c1c23
29.2 µM

-- ask Would you kindly share the measured TGI for `O=C1/C(=C/c2ccc3c(c2)OCCO3)CCC/C1=C\c1ccc2c(c1)OCCO2` ?
-- reply > 100 µM

-- ask Moving on to the next molecule: `CC1=C(C(=O)NCc2ccccc2)C(c2ccc(Cl)c(Cl)c2)C(C(=O)NCc2ccccc2)=C(C)N1`
-- reply > 100 µM

-- ask Can you check `CC(C)=NNc1snnc1C(N)=O` next?
-- reply > 100 µM

----------
test system: SK-OV-3 ovarian; test: NCI tumour cell line growth inhibition, 48 h
result type: TGI

// below: answered compounds
1. O=C1CCCC/C1=C1/SC(=Nc2ccccc2)C(=Nc2ccccc2)N1c1ccccc1
> 100 µM
2. N#Cc1c(-c2ccccc2)cc(-c2ccc(N)cc2)[nH]c1=O
> 100 µM
3. O=c1cc(-c2ccccc2)[nH]c2ccc(S)cc12
> 100 µM
4. C=C(Cl)/C(=C\Cl)CCC(Cl)C(C)C (stereo not drawn)
> 100 µM
5. O=C1NC(N2CCCC(CO)C2)=N/C1=C\c1ccccc1 (stereo not drawn)
> 100 µM
6. O=[N+]([O-])C1=Cc2cc(Cl)ccc2OC1c1cccc2ccccc12 (stereo not drawn)
4.86 µM
7. O=C(O)[C@@H]1OCCOCCO[C@@H](C(=O)O)[C@H](C(=O)O)OCCOCCO[C@H]1C(=O)O
> 100 µM
8. O=c1c2cc(Br)cc(Br)c2nc(CCCl)n1-c1ccc(O)c([N+](=O)[O-])c1
29.5 µM
9. Nc1ccccc1C#C/C=C\C#CC#C/C=C\C#Cc1ccccc1N
> 100 µM
10. C[P+](C)(C)C
> 100 µM

Now consider a different compound.
-- ask Data request, read-out TGI, for CC(C)(C)OC(=O)N1CC(CCl)c2ccc(O)cc21 (stereo not drawn)
-- reply 11.8 µM

----------
test system: SN12C renal; experiment: NCI tumour cell line growth inhibition, 48 h
Quick reference: TGI of the listed items.

Field: example entries. Status: answers known.
1. CCC(=O)NI1OC(=O)c2ccccc21
> 100 µM
2. C1OC1CN1CCN(CC2CO2)CC1 (stereo unspecified)
> 100 µM
3. CCOC(=O)C1C=C2O[C@@H]3OC4(CCCCC4)O[C@@H]3C2C2C(=O)CCC(=O)[C@@]12C(=O)OC (stereo partly specified)
> 100 µM
4. CC(C)(C)c1cc2c(c(C(C)(C)C)c1O)CC(=O)O2
> 100 µM
5. CC(=O)OC1OC(c2ccoc2)C[C@@]12C1CCC3O[C@]3(C)[C@]1(C)[C@H](OC(C)=O)[C@H](OC(C)=O)[C@H]2C (stereo partly specified)
> 37.5 µM

Consider the additional compound presented here.
-- ask May I ask what TGI has been recorded for O=C1N2Cc3c4ccc5c3CN3C(=O)N6Cc7c(ccc(c7CN1C6(c1ccccc1)C23c1ccccc1)OCCOCCOc1cc(Br)c(Br)cc1OCCOCCO4)OCCOCCOc1cc(Br)c(Br)cc1OCCOCCO5 (stereo unspecified) ?
-- reply > 100 µM

----------
Here the recorded TGI is given for each entry.
system: UACC-257 melanoma; experiment: NCI tumour cell line growth inhibition, 48 h
Only the number, expressed in µM, is required.

1. O=C1c2c(ccc3c2CCC3)CC1Cc1ccc2c(c1)CCC2 (stereo not drawn)
61.9

Now examine the next entry.
-- ask Consider the molecule `N#Cc1ccc(-c2c(-c3ncn[nH]3)sc(N3CCOCC3)c2C#N)c(F)c1` and give its measured TGI.
-- reply 8.85

----------
test system: SF-268 CNS; assay: NCI tumour cell line growth inhibition, 48 h
result type: TGI

1) Cc1cc(C)c2c(n1)S(=O)(=O)N(CCCN1CCN(c3cccc(Cl)c3)CC1)/C(=C(\O)c1ccccc1)C2=O
> 100 µM
2) CCOC(=O)C(Cc1c[nH]c2cc(N(CCO)CCO)ccc12)(NC(C)=O)C(=O)OCC
> 1000 µM

-- ask Any idea what its TGI is? The compound is `C[P+](C)(C)C`
-- reply > 100 µM

----------
Measured TGI accompanies every entry in the list below.
system: CCRF-CEM leukemia; assay: NCI tumour cell line growth inhibition, 48 h

Record excerpt, results attached:
1) C=CC(COC(=O)C(C)(C)OC(C)=O)c1ccc(OC(=O)C(C)C)c(OC)c1 (stereo not given)
> 22 µM
2) C/C(=N\NC(N)=S)c1ccc(C)c(C)c1
> 100 µM
3) N#Cc1c(C#N)c(-c2ccccc2)n(Cc2ccccc2)c1N
> 100 µM
4) C[C@@H](CC(=O)O)OC1OC(COC(=O)C(C)(C)C)C(OC(=O)C(C)(C)C)C(OC(=O)C(C)(C)C)C1OC(=O)C(C)(C)C (stereo not given in full)
55.9 µM

-- ask For CCCCCCCCOCC(O)CO (stereo not given) , what is its reported TGI?
-- reply 65 µM

----------
system: HS 578T breast; assay: NCI tumour cell line growth inhibition, 48 h
result type: TGI

1. N#Cc1cc2c(cc1C#N)/C(=N\c1cccc(N)n1)N=C2Nc1cccc(N)n1
> 100 µM

-- ask Entry under review: CC(=O)N1c2ccccc2C2=NN(C)C(=N)SC21 (stereo not drawn) . Reported TGI?
-- reply > 100 µM

-- ask Next: O=C1NC(N2CCCC(CO)C2)=N/C1=C\c1ccccc1 (stereo not drawn)
-- reply > 100 µM

----------
tested on: SF-268 CNS; assay: NCI tumour cell line growth inhibition, 48 h
TGI values, listed per item

Some solved cases for reference:
1) NC(=O)CN1CC(C2=C(O)CN(CC(N)=O)C2=O)=CC1=O
> 100 µM
2) COc1ccc(C2C(C#N)=C(S)N(C3OC(COC(C)=O)C(OC(C)=O)C(OC(C)=O)C3OC(C)=O)C(C)=C2C(C)=O)cc1 (stereo not given)
> 100 µM
3) CCC1C(C#N)=C(O)NC(O)=C1C#N
> 100 µM
4) CC[C@H](C)C1=C(OC(C)=O)[N@+]2([O-])Oc3ccc(-c4c(O)c(O)c(-c5ccc(OC(C)=O)cc5)c(OC(C)=O)c4OC(C)=O)cc3O[C@]2([C@@H](C)CC)C(=O)N1O
> 50 µM

-- ask So what TGI did `O=C(Nn1c(-c2cccs2)nc2ccc(I)cc2c1=O)c1ccccc1` get with SF-268 CNS?
-- reply > 100 µM
